- study-target: Tyrosine-protein kinase Lck (Homo sapiens, UniProt P06239)
- Sequence (P06239 whole entry): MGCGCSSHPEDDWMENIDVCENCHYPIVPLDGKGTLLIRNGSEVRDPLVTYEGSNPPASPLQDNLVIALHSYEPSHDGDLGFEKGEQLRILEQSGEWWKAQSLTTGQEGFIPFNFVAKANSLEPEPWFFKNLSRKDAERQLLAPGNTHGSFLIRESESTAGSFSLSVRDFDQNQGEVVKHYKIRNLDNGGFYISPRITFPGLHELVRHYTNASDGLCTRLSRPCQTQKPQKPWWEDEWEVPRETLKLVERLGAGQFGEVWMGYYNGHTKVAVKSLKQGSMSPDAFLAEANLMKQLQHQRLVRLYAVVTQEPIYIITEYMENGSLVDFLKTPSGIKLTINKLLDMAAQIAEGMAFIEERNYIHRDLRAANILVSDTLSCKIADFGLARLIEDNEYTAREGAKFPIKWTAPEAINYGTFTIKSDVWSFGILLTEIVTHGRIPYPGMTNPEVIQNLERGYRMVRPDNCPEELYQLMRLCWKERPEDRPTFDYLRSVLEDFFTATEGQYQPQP
- test-description: DRUGMATRIX: Protein Tyrosine Kinase, LCK enzyme inhibition (substrate: Poly(Glu:Tyr))
- Type: cell-based, Insect cells
- run-parameters: Not Active = under 50% inhibition at 10 µM; read-out: IC50
measure-name: IC50 (µM)
Give the quantity in µM, number only.

IN: Query IC50 on Tyrosine-protein kinase Lck (Homo sapiens, UniProt P06239) for C[C@@](Cc1ccc(O)c(O)c1)(NN)C(=O)O.O [CARBIDOPA]
OUT: 6.8

Next:
IN: Query IC50 on Tyrosine-protein kinase Lck (Homo sapiens, UniProt P06239) for Cc1c(O)cccc1C(=O)N[C@@H](CSc1ccccc1)[C@H](O)CN1C[C@H]2CCCC[C@H]2C[C@H]1C(=O)NC(C)(C)C
OUT: 79.2
